Test: Plasma concentrations of BVDU, BVU and GEM in patients of the dose finding study (HPLC)
Assay type: in vivo, human
Conditions: both sexes, human, plasma, po, dose level 10500 mg; 1.0 hr; day 1; oral BVDU; read-out: BVDU plasma concentration, Mean
Measured metric: concentration at 1 h

Data point: O=c1[nH]c(=O)n([C@H]2C[C@H](O)[C@@H](CO)O2)cc1/C=C/Br [BVDU, (E)-5-(2-bromovinyl)-2′-deoxyuridine] ; concentration at 1 h = 1010 ng/mL

----------
Test: Plasma concentrations of BVDU, BVU and GEM in patients of the dose finding study (HPLC)
Assay type: in vivo, human
Details: both sexes, human, plasma, po, dose level 12000 mg; 4.0 hr; day 1; oral BVDU; read-out: BVDU plasma concentration, Median
Measured metric: concentration at 4 h (ng/mL)
Express the result in ng/mL but write the number alone.

Data point: O=c1[nH]c(=O)n([C@H]2C[C@H](O)[C@@H](CO)O2)cc1/C=C/Br [BVDU, (E)-5-(2-bromovinyl)-2′-deoxyuridine] ; concentration at 4 h = 440

----------
Experiment: Plasma concentrations of BVDU, BVU and GEM in patients of the dose finding study (HPLC)
Assay type: in vivo, human
Conditions: human, plasma, po, dose level 9000 mg; 3.0 hr; day 1; oral BVDU; read-out: BVDU plasma concentration, Mean
Measured metric: concentration at 3 h (ng/mL)
Express the result in ng/mL but write the number alone.

Data point: O=c1[nH]c(=O)n([C@H]2C[C@H](O)[C@@H](CO)O2)cc1/C=C/Br [BVDU, (E)-5-(2-bromovinyl)-2′-deoxyuridine] ; concentration at 3 h = 464

----------
Experiment: Plasma concentrations of BVDU, BVU and GEM in patients of the dose finding study (HPLC)
Format: in vivo, human
Conditions: human, plasma, po, dose level 7500 mg; 5.0 hr; day 1; oral BVDU; read-out: BVDU plasma concentration, Median
Measured metric: concentration at 5 h
Could you kindly put the unit after your number?

Data point: O=c1[nH]c(=O)n([C@H]2C[C@H](O)[C@@H](CO)O2)cc1/C=C/Br [BVDU, (E)-5-(2-bromovinyl)-2′-deoxyuridine] ; concentration at 5 h = 776 ng/mL

----------
Assay: Plasma concentrations of BVDU, BVU and GEM in patients of the dose finding study (HPLC)
Type: in vivo, human
Settings: both sexes, human, plasma, po, dose level 7500 mg; 2.0 hr; day 1; oral BVDU; read-out: BVDU plasma concentration, Mean
Measured metric: concentration at 2 hr (ng/mL)
Express the result in ng/mL but write the number alone.

Data point: O=c1[nH]c(=O)n([C@H]2C[C@H](O)[C@@H](CO)O2)cc1/C=C/Br [BVDU, (E)-5-(2-bromovinyl)-2′-deoxyuridine] ; concentration at 2 hr = 454

----------
Assay: Plasma concentrations of BVDU, BVU and GEM in patients of the dose finding study (HPLC)
Format: in vivo, human
Settings: both sexes, human, plasma, po, dose level 10500 mg; 0.0 hr; day 1; oral BVDU; read-out: BVDU plasma concentration, patient
Measured metric: concentration at 0 h (ng/mL)
Express the result in ng/mL but write the number alone.

Data point: O=c1[nH]c(=O)n([C@H]2C[C@H](O)[C@@H](CO)O2)cc1/C=C/Br [BVDU, (E)-5-(2-bromovinyl)-2′-deoxyuridine] ; concentration at 0 h = 0

----------
Assay: Plasma concentrations of BVDU, BVU and GEM in patients of the dose finding study (HPLC)
Assay type: in vivo, human
Conditions: both sexes, human, plasma, po, dose level 6000 mg; 2.0 hr; day 1; oral BVDU; read-out: BVDU plasma concentration, Median
Measured metric: concentration at 2 hr (ng/mL)
Express the result in ng/mL but write the number alone.

Data point: O=c1[nH]c(=O)n([C@H]2C[C@H](O)[C@@H](CO)O2)cc1/C=C/Br [BVDU, (E)-5-(2-bromovinyl)-2′-deoxyuridine] ; concentration at 2 hr = 207

----------
Experiment: Plasma concentrations of BVDU, BVU and GEM in patients of the dose finding study (HPLC)
Type: in vivo, human
Conditions: both sexes, human, plasma, po, dose level 10500 mg; 2.0 hr; day 1; oral BVDU; read-out: BVDU plasma concentration, Median
Experimental: Dose finding study: 22 Patients with advanced pancreatic adenocarcinoma were eligible for treatment in this single arm study. The mean age was 60 years and 73% of patients were males. One patient without progressive disease was excluded from the study for withdrawal of consent after the first cycle. Of the 21 patients left, 15 were in stage IV and 6 in stage III. BVDU was administered in a combination with GEM. On day 1, on day 8 and on day 15 of each 28-day cycle, BVDU was given together with GEM. […]
Measured metric: concentration at 2 h (ng/mL)
Express the result in ng/mL but write the number alone.

Data point: O=c1[nH]c(=O)n([C@H]2C[C@H](O)[C@@H](CO)O2)cc1/C=C/Br [BVDU, (E)-5-(2-bromovinyl)-2′-deoxyuridine] ; concentration at 2 h = 669

----------
Test: Plasma concentrations of BVDU, BVU and GEM in patients of the dose finding study (HPLC)
Type: in vivo, human
Details: both sexes, human, plasma, po, dose level 6000 mg; 4.0 hr; day 1; oral BVDU; read-out: BVDU plasma concentration, Mean
Measured metric: concentration at 4 hr (ng/mL)
Express the result in ng/mL but write the number alone.

Data point: O=c1[nH]c(=O)n([C@H]2C[C@H](O)[C@@H](CO)O2)cc1/C=C/Br [BVDU, (E)-5-(2-bromovinyl)-2′-deoxyuridine] ; concentration at 4 hr = 113

----------
Assay: Plasma concentrations of BVDU, BVU and GEM in patients of the dose finding study (HPLC)
Assay type: in vivo, human
Conditions: both sexes, human, plasma, po, dose level 10500 mg; 4.0 hr; day 1; oral BVDU; read-out: BVDU plasma concentration, Mean
Measured metric: concentration at 4 h

Data point: O=c1[nH]c(=O)n([C@H]2C[C@H](O)[C@@H](CO)O2)cc1/C=C/Br [BVDU, (E)-5-(2-bromovinyl)-2′-deoxyuridine] ; concentration at 4 h = 206 ng/mL

----------
Test: Plasma concentrations of BVDU, BVU and GEM in patients of the dose finding study (HPLC)
Type: in vivo, human
Details: human, plasma, po, dose level 7500 mg; 2.0 hr; day 1; oral BVDU; read-out: BVDU plasma concentration, Median
Measured metric: concentration at 2 h (ng/mL)
Express the result in ng/mL but write the number alone.

Data point: O=c1[nH]c(=O)n([C@H]2C[C@H](O)[C@@H](CO)O2)cc1/C=C/Br [BVDU, (E)-5-(2-bromovinyl)-2′-deoxyuridine] ; concentration at 2 h = 403

----------
Assay: Plasma concentrations of BVDU, BVU and GEM in patients of the dose finding study (HPLC)
Format: in vivo, human
Settings: human, plasma, po, dose level 9000 mg; 1.0 hr; day 1; oral BVDU; read-out: BVDU plasma concentration, Mean
Measured metric: concentration at 1 h (ng/mL)
Express the result in ng/mL but write the number alone.

Data point: O=c1[nH]c(=O)n([C@H]2C[C@H](O)[C@@H](CO)O2)cc1/C=C/Br [BVDU, (E)-5-(2-bromovinyl)-2′-deoxyuridine] ; concentration at 1 h = 784

----------
Experiment: Plasma concentrations of BVDU, BVU and GEM in patients of the dose finding study (HPLC)
Type: in vivo, human
Settings: both sexes, human, plasma, po, dose level 6000 mg; 5.0 hr; day 1; oral BVDU; read-out: BVDU plasma concentration, Mean
Measured metric: concentration at 5 hr (ng/mL)
Express the result in ng/mL but write the number alone.

Data point: O=c1[nH]c(=O)n([C@H]2C[C@H](O)[C@@H](CO)O2)cc1/C=C/Br [BVDU, (E)-5-(2-bromovinyl)-2′-deoxyuridine] ; concentration at 5 hr = 300

----------
Assay: Plasma concentrations of BVDU, BVU and GEM in patients of the dose finding study (HPLC)
Assay type: in vivo, human
Conditions: both sexes, human, plasma, po, dose level 12000 mg; 2.0 hr; day 1; oral BVDU; read-out: BVDU plasma concentration, Mean
Measured metric: concentration at 2 h

Data point: O=c1[nH]c(=O)n([C@H]2C[C@H](O)[C@@H](CO)O2)cc1/C=C/Br [BVDU, (E)-5-(2-bromovinyl)-2′-deoxyuridine] ; concentration at 2 h = 904 ng/mL

----------
Test: Plasma concentrations of BVDU, BVU and GEM in patients of the dose finding study (HPLC)
Type: in vivo, human
Settings: human, plasma, po, dose level 9000 mg; 9.0 hr; day 1; oral BVDU; read-out: BVDU plasma concentration, Mean
Measured metric: concentration at 9 h (ng/mL)
Express the result in ng/mL but write the number alone.

Data point: O=c1[nH]c(=O)n([C@H]2C[C@H](O)[C@@H](CO)O2)cc1/C=C/Br [BVDU, (E)-5-(2-bromovinyl)-2′-deoxyuridine] ; concentration at 9 h = 1510
